Hello, the source for this data is patent US11242370B2, in case you need it.

Assay: in vivo
Details: rat, plasma, sc, 0.22 mg/kg/day
Bridges are numbered along the chain shown (N, C = ends). Where no end group is shown, it is not given here.
Value Type: level at time molar at 96 h
Give me the value, and tack the unit on after it.

Reported level at time molar at 96 h, substance H-GGGGSGHEEPCGPSHKSFCLNGGLCYQIPTIPSPFCRCVENYTGARCEKVFL (disulfide 11-25, 19-36, 38-47 (inferred)) [Example 9] : ____ 2.59 nM
